This section presents variants with their documented denaturant midpoint (higher = more stable) values.
B1: Tryptophan synthase alpha chain, P0A877 (parent)
chain: MERYESLFAQLKERKEGAFVPFVTLGDPGIEQSLKIIDTLIEAGADALELGIPFSDPLADGPTIQNATLRAFAAGVTPAQCFEMLALIRQKHPTIPIGLLMYANLVFNKGIDEFYAQCEKVGVDSVLVADVPVEESAPFRQAALRHNVAPIFICPPNADDDLLRQIASYGRGYTYLLSRAGVTGAENRAALPLNHLVAKLKEYNAAPPLQGFGISAPDQVKAAIDAGAAGAISGSAIVKIIEQHINEPEKMLAALKVFVQPMKAATRS

variants of: B1; conditions: Escherichia coli (strain K12); pH 7.8; 25 °C; Urea; NMR; Potassium phosphate 58 mM; reversible: yes; structure 1WQ5; whole UniProt chain shown
MEASURED PROPERTY: denaturant midpoint (higher = more stable) (M)

>  <VARIANT SPEC>
P96A

>  <SCALE UNIT>
M

>  <REPORTED VALUE>
8.6

$$$$
>  <VARIANT SPEC>
I95A

>  <SCALE UNIT>
M

>  <REPORTED VALUE>
6.2

$$$$
>  <VARIANT SPEC>
Y102A

>  <SCALE UNIT>
M

>  <REPORTED VALUE>
5

$$$$
>  <VARIANT SPEC>
L100A

>  <SCALE UNIT>
M

>  <REPORTED VALUE>
5.2

$$$$
>  <VARIANT SPEC>
P93A H244A

>  <SCALE UNIT>
M

>  <REPORTED VALUE>
5.4

$$$$
